From: ChEMBL document CHEMBL1134617

# Measured On: 5-hydroxytryptamine receptor 2C (Rattus norvegicus)
# Sequence (P08909 whole entry): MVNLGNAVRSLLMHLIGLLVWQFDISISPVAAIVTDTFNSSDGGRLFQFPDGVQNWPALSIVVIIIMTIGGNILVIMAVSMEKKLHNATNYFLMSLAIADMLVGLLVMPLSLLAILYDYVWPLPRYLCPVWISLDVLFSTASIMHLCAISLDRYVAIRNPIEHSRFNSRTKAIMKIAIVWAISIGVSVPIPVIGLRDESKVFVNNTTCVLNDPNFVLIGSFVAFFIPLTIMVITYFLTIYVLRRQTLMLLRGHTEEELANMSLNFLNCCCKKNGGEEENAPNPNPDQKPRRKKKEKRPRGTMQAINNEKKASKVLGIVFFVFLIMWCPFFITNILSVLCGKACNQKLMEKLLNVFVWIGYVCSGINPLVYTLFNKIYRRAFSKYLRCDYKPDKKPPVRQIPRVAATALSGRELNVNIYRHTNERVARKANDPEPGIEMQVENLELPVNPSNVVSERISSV
Outcome Measure: Ki (nM)

INSERT INTO assay_data (query_smiles, outcome_measure, qualifier_sign, quantitative_result) VALUES
  ('COc1ccccc1CCN', 'Ki', '>', 10000),
  ('COc1ccc(OC)c(CCN)c1', 'Ki', '=', 6400),
  ('COc1cc(CCCCc2ccccc2)ccc1CCN', 'Ki', '=', 68),
  ('COc1ccc(OCc2ccccc2)cc1CCN', 'Ki', '=', 410);

* * *

# Measured On: UniProtKB P14842
# Protocol Text: Binding affinity against rat 5-hydroxytryptamine 2A receptor using [3H]ketanserin as radioligand
Assign labels as follows, please: 1.0 for Ki below 300 nM; 0.0 for Ki equal to or exceeding 300 nM.

INSERT INTO assay_data (query_smiles, class_name) VALUES
  ('COc1ccc(Br)cc1CCN', 0.0),
  ('COc1cc(-c2ccccc2)ccc1CCN', 0.0),
  ('COc1ccc(OCCc2ccc(Br)cc2)cc1CCN', 1.0),
  ('COc1ccc(CCCCCc2ccccc2)cc1CCN', 1.0),
  ('COc1ccc(I)cc1CCN', 0.0),
  ('COc1ccccc1CCN', 0.0),
  ('COc1ccc(OCc2ccccc2)cc1CCN', 0.0);

* * *

# Measured On: 5-hydroxytryptamine receptor 2A (Rattus norvegicus, UniProt P14842)
# Sequence (P14842 whole entry): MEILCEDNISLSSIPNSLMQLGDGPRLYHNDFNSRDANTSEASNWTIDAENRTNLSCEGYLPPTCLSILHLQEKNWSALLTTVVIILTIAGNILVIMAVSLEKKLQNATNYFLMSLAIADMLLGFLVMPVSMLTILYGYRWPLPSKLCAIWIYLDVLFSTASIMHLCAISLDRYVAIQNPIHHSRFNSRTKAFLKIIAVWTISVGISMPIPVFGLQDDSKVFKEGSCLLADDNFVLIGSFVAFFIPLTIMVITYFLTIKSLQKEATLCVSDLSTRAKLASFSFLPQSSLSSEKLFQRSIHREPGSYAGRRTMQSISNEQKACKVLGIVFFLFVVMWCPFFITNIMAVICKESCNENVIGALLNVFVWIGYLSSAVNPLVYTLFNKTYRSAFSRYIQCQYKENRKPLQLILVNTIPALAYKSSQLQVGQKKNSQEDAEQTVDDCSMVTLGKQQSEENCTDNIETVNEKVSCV
# Protocol Text: Binding affinity against rat 5-hydroxytryptamine 2A receptor using [3H]DOB as radioligand
pKi: −log10 of the molar value.
Outcome Measure: pKi

INSERT INTO assay_data (compound, qualifier_sign, quantitative_result) VALUES
  ('COc1cc(CCCc2ccccc2)ccc1CCN', '=', 7.92),
  ('COc1cc(-c2ccccc2)ccc1CCN', '=', 5.31),
  ('COc1cc(CCCCc2ccccc2)ccc1CCN', '=', 7.38),
  ('COc1cc(CCCCCc2ccccc2)ccc1CCN', '=', 7.74),
  ('COc1ccc(OCc2ccccc2)cc1CCN', '=', 6.59),
  ('COc1ccc(OCCc2ccccc2)cc1CCN', '=', 6.36),
  ('COc1cc(CCCC2CCCCC2)ccc1CCN', '=', 6.60),
  ('COc1cc(OCCc2ccccc2)ccc1CCN', '=', 6.96),
  ('COc1cc(C#CCCCc2ccccc2)ccc1CCN', '=', 6.62),
  ('COc1ccccc1CCN', '<', 5.00),
  ('COc1ccc(Br)cc1CCN', '=', 6.68),
  ('COc1ccc(CCCc2ccccc2)cc1CC(C)N (centres undefined)', '=', 7.72),
  ('COc1ccc(CCCC2CCCCC2)cc1CCN', '=', 6.12),
  ('COc1ccc(-c2ccccc2)cc1CCN', '=', 5.82),
  ('COc1ccc(OCCc2ccc(Br)cc2)cc1CCN', '=', 7.46),
  ('COc1ccc(CCCCc2ccccc2)cc1CCN', '=', 7.17),
  ('COc1ccc(I)cc1CCN', '=', 6.68),
  ('COc1ccc(CCCc2ccccc2)cc1CCN', '=', 7.52),
  ('COc1ccc(O)cc1CCN', '=', 5.88);
